Documented IC50 across a set of molecules
# systemUnderTest: α4β1 integrin (Homo sapiens, UniProt P05556+P13612)
# Construct: endogenous in cells; host or cells: Ramos cells
# Sequence (P13612 34-1032): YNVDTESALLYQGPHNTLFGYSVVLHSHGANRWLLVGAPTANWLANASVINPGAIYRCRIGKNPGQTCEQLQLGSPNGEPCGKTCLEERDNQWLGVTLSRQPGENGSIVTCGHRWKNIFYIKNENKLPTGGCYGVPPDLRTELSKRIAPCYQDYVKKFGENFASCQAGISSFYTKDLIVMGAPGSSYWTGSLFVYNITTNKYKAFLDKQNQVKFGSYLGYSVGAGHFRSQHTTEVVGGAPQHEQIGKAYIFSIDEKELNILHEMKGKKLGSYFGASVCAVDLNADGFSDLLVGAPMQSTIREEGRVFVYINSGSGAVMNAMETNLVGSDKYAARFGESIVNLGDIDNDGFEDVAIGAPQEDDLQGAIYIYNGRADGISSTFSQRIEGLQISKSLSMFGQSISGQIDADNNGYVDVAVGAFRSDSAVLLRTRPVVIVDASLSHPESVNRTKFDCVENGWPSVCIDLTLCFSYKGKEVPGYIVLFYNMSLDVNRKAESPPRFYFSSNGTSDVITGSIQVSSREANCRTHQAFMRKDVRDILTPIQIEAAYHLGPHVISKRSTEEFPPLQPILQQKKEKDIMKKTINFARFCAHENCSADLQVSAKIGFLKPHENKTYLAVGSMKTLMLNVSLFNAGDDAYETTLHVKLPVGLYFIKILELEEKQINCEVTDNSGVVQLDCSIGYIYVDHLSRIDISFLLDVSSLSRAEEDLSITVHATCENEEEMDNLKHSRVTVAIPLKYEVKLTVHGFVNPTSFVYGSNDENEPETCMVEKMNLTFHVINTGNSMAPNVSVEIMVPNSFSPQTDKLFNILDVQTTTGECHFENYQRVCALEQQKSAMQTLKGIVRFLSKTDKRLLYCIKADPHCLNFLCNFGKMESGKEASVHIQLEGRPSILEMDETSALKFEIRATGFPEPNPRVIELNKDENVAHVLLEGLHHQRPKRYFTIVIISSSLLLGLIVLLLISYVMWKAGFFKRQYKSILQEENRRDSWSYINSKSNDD
# Sequence (P05556 21-798): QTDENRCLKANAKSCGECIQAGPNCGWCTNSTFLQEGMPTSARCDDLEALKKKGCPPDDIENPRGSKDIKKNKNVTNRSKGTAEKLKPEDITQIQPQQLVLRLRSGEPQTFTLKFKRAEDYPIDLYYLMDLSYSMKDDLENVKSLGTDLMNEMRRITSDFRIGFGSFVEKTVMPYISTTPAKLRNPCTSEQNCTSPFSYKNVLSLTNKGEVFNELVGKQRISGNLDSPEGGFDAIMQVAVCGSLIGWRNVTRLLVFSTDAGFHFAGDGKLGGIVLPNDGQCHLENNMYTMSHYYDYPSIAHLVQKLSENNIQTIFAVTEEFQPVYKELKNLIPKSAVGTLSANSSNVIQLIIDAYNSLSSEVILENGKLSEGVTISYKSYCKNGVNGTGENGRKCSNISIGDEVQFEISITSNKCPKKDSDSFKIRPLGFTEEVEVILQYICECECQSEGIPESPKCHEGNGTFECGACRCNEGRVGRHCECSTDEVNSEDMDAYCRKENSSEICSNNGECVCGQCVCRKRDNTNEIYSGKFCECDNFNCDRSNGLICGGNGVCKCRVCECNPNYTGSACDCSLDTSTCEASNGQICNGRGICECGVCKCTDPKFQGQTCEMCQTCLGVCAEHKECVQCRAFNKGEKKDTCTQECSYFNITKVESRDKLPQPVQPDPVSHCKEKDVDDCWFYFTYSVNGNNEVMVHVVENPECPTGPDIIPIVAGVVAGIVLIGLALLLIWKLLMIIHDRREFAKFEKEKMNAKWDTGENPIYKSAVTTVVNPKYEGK
# assayNotes: Adhesion of calcein-labeled Ramos cells to CS1 (fibronectin) peptide conjugated ovalbumin
# Assay type: cell-based
# experimentalParameters: Table 6; Ramos cell adhesion to CS1 conjugated ovalbumin, 30 minutes at 37° C.
quantityMeasured: IC50

[[record]]
molecule = "O=C(O)C[C@H](NC(=O)Nc1c(O)c2c(n(Cc3ccccc3Cl)c1=O)CCC2)c1cccc(OCC(F)(F)F)c1"
result = "30 nM"

[[record]]
molecule = "CCOc1cccc(Cl)c1Cn1cc(C)c(O)c(NC(=O)N[C@@H](CC(=O)O)c2ccc(C)cc2)c1=O"
result = "3 nM"

[[record]]
molecule = "COc1cc([C@H](CC(=O)O)NC(=O)Nc2c(O)c(C)cn(Cc3c(C)cccc3Cl)c2=O)ccc1C"
result = "25 nM"

[[record]]
molecule = "Cc1ccc([C@H](CC(=O)O)NC(=O)Nc2c(O)c(C)cn(Cc3cc(OC(C)C)ccc3Cl)c2=O)cc1"
result = "7 nM"

[[record]]
molecule = "CCCc1cn(Cc2c(Cl)cccc2OC)c(=O)c(NC(=O)N[C@@H](CC(=O)O)c2ccc(C)c(OC)c2)c1O"
result = "15 nM"

[[record]]
molecule = "CCCc1cn(Cc2c(Cl)cccc2OC)c(=O)c(NC(=O)N[C@@H](CC(=O)O)c2ccc(C)cc2)c1O"
result = "15 nM"

[[record]]
molecule = "Cc1cc(C(CC(=O)O)NC(=O)Nc2c(O)ccn(Cc3ccccc3Cl)c2=O)oc1C (stereo not shown)"
result = "115 nM"

[[record]]
molecule = "CCOc1cc(OCC)cc([C@H](CC(=O)O)NC(=O)Nc2c(O)c(C)cn(Cc3ccccc3Cl)c2=O)c1"
result = "3 nM"

[[record]]
molecule = "Cc1ccc([C@H](CC(=O)O)NC(=O)Nc2c(O)c(C(C)C)cn(Cc3ccccc3Cl)c2=O)cc1"
result = "60 nM"

[[record]]
molecule = "COc1ccc(C(CC(=O)O)NC(=O)Nc2c(O)ccn(Cc3ccccc3Cl)c2=O)c2ccccc12 (stereo not shown)"
result = "160 nM"

[[record]]
molecule = "O=C(O)C[C@H](NC(=O)Nc1c(O)ccn(Cc2ccccc2Cl)c1=O)c1cccc(OC2CCCC2)c1"
result = "5 nM"

[[record]]
molecule = "CCOc1cccc(Cl)c1Cn1cc(C)c(O)c(NC(=O)N[C@@H](CC(=O)O)c2cccc(OC(C)C)c2)c1=O"
result = "4 nM"

[[record]]
molecule = "Cc1cn(Cc2ccccc2Cl)c(=O)c(NC(=O)N[C@@H](CC(=O)O)c2cccc(OCC(F)(F)F)c2)c1O"
result = "15 nM"

[[record]]
molecule = "CCCCOc1cccc([C@H](CC(=O)O)NC(=O)Nc2c(O)c3c(n(Cc4ccccc4Cl)c2=O)CCC3)c1"
result = "20 nM"

[[record]]
molecule = "O=C(O)C[C@H](NC(=O)Nc1c(O)ccn(Cc2ccccc2Cl)c1=O)c1ccccn1"
result = "150 nM"

[[record]]
molecule = "Cc1ccc([C@H](CC(=O)O)NC(=O)Nc2c(O)c(C)cn(Cc3cccc(Cl)c3)c2=O)cc1"
result = "20 nM"

[[record]]
molecule = "CCOc1cccc([C@H](CC(=O)O)NC(=O)Nc2c(O)c(C)c(C)n(Cc3ccccc3Cl)c2=O)c1"
result = "30 nM"

[[record]]
molecule = "COc1ccc2cc([C@H](CC(=O)O)NC(=O)Nc3c(O)c(C)cn(Cc4ccccc4Cl)c3=O)ccc2c1"
result = "5 nM"

[[record]]
molecule = "CCOc1cccc([C@H](CC(=O)O)NC(=O)Nc2c(O)c(C)cn(Cc3c(Cl)cccc3OCC)c2=O)c1"
result = "2 nM"

[[record]]
molecule = "COc1ccc2cc(C(CC(=O)O)NC(=O)Nc3c(O)c(C)cn(Cc4c(C)cccc4Cl)c3=O)ccc2c1 (stereo not shown)"
result = "35 nM"

[[record]]
molecule = "CCOc1ccc([C@H](CC(=O)O)NC(=O)Nc2c(O)c(C)cn(Cc3c(C)cccc3Cl)c2=O)cc1OCC"
result = "3 nM"

[[record]]
molecule = "CCOc1cccc([C@H](CC(=O)O)NC(=O)Nc2c(O)c(C)cn(Cc3c(Cl)cccc3OC)c2=O)c1"
result = "3 nM"


* * *

Documented IC50 across a set of compounds
# systemUnderTest: α4β1 integrin (Homo sapiens, UniProt P05556+P13612)
# Construct: endogenous in cells; host or cells: Ramos cells
# assayNotes: Adhesion of calcein-labeled Ramos cells to CS1 (fibronectin) peptide conjugated ovalbumin
# Assay type: cell-based
# experimentalParameters: Table 5; Ramos cell adhesion to CS1 conjugated ovalbumin; dose required to give 50% inhibition
quantityMeasured: IC50 (nM)

[[record]]
compound = "COc1cccc(Cl)c1Cn1cccc(NC(=O)N[C@@H](CC(=O)O)c2ccc(C)cc2)c1=O"
quantitymeasured = "IC50"
unitspec = "nM"
resultnumber = 100

[[record]]
compound = "CCCc1cn(Cc2ccc(Cl)cc2)c(=O)c(NC(=O)N[C@@H](CC(=O)O)c2cccc(OCC)c2)c1O"
quantitymeasured = "IC50"
unitspec = "nM"
resultnumber = 30

[[record]]
compound = "O=C(O)CC(NC(=O)Nc1c(O)ccn(Cc2ccccc2Cl)c1=O)c1cccnc1 (stereo not shown)"
quantitymeasured = "IC50"
unitspec = "nM"
resultnumber = 50

[[record]]
compound = "Cc1ccc([C@H](CC(=O)O)NC(=O)Nc2c(O)ccn(Cc3ccccc3Cl)c2=O)cc1C"
quantitymeasured = "IC50"
unitspec = "nM"
resultnumber = 5

[[record]]
compound = "Cc1ccc([C@H](CC(=O)O)NC(=O)Nc2c(O)ccn(Cc3ccccc3OC(F)F)c2=O)cc1"
quantitymeasured = "IC50"
unitspec = "nM"
resultnumber = 75

[[record]]
compound = "Cc1ccc([C@H](CC(=O)O)NC(=O)Nc2c(Nc3ccc(C(=O)O)cc3)ccn(Cc3ccccc3Cl)c2=O)cc1"
quantitymeasured = "IC50"
unitspec = "nM"
resultnumber = 4

[[record]]
compound = "Cc1ccc([C@@H](CC(=O)O)NC(=O)Nc2c(O)ccn(Cc3ccccc3Cl)c2=O)cc1"
quantitymeasured = "IC50"
unitspec = "nM"
resultnumber = 300

[[record]]
compound = "Cc1ccc([C@H](CC(=O)O)NC(=O)Nc2c(O)ccn(Cc3ccc(Cl)c(Cl)c3)c2=O)cc1"
quantitymeasured = "IC50"
unitspec = "nM"
resultnumber = 45

[[record]]
compound = "CCCc1cn(Cc2ccc(Cl)cc2)c(=O)c(NC(=O)N[C@@H](CC(=O)O)c2ccc(C)cc2)c1O"
quantitymeasured = "IC50"
unitspec = "nM"
resultnumber = 30

[[record]]
compound = "CCCc1cn(Cc2ccccc2Cl)c(=O)c(NC(=O)N[C@@H](CC(=O)O)c2ccc(OCC)c(OCC)c2)c1O"
quantitymeasured = "IC50"
unitspec = "nM"
resultnumber = 5

[[record]]
compound = "O=C(O)CC(NC(=O)Nc1c(O)ccn(Cc2ccccc2Cl)c1=O)c1ccco1 (stereo not shown)"
quantitymeasured = "IC50"
unitspec = "nM"
resultnumber = 50

[[record]]
compound = "Cc1ccc([C@H](CC(=O)O)NC(=O)Nc2c(O)ccn(Cc3ccccc3C(F)(F)F)c2=O)cc1"
quantitymeasured = "IC50"
unitspec = "nM"
resultnumber = 20

[[record]]
compound = "COc1cccc(Cl)c1Cn1ccc(O)c(NC(=O)N[C@@H](CC(=O)O)c2ccc(C)cc2)c1=O"
quantitymeasured = "IC50"
unitspec = "nM"
resultnumber = 3

[[record]]
compound = "COc1ccc(Cn2ccc(O)c(NC(=O)N[C@@H](CC(=O)O)c3ccc(C)cc3)c2=O)cc1"
quantitymeasured = "IC50"
unitspec = "nM"
resultnumber = 20

[[record]]
compound = "COc1ccc([C@H](CC(=O)O)NC(=O)Nc2c(O)ccn(Cc3ccccc3Cl)c2=O)cc1F"
quantitymeasured = "IC50"
unitspec = "nM"
resultnumber = 15

[[record]]
compound = "Cc1ccc([C@H](CC(=O)O)NC(=O)Nc2c(O)ccn(Cc3ccc(F)cc3F)c2=O)cc1"
quantitymeasured = "IC50"
unitspec = "nM"
resultnumber = 30

[[record]]
compound = "CCOc1ccc([C@H](CC(=O)O)NC(=O)Nc2c(O)c(C)c(C)n(Cc3c(C)cccc3Cl)c2=O)cc1OCC"
quantitymeasured = "IC50"
unitspec = "nM"
resultnumber = 4

[[record]]
compound = "COc1cccc(Cn2ccc(O)c(NC(=O)N[C@@H](CC(=O)O)c3ccc(C)cc3)c2=O)c1"
quantitymeasured = "IC50"
unitspec = "nM"
resultnumber = 40

[[record]]
compound = "Cc1ccc([C@H](CC(=O)O)N(C)C(=O)Nc2c(O)ccn(Cc3ccccc3Cl)c2=O)cc1"
quantitymeasured = "IC50"
unitspec = "nM"
resultnumber = 400

[[record]]
compound = "CCCc1cn(Cc2ccccc2Cl)c(=O)c(NC(=O)N[C@@H](CC(=O)O)c2cccc(OCC)c2)c1O"
quantitymeasured = "IC50"
unitspec = "nM"
resultnumber = 3

[[record]]
compound = "Cc1ccc([C@H](CC(=O)O)NC(=O)Nc2c(O)c(C)cn([C@H](C)c3ccccc3)c2=O)cc1"
quantitymeasured = "IC50"
unitspec = "nM"
resultnumber = 4000

[[record]]
compound = "Cc1ccc([C@H](CC(=O)O)NC(=O)Nc2c(O)ccn(Cc3ccc(C(F)(F)F)cc3)c2=O)cc1"
quantitymeasured = "IC50"
unitspec = "nM"
resultnumber = 20

[[record]]
compound = "CCc1cccc([C@H](CC(=O)O)NC(=O)Nc2c(O)ccn(Cc3ccccc3Cl)c2=O)c1"
quantitymeasured = "IC50"
unitspec = "nM"
resultnumber = 15

[[record]]
compound = "COc1ccc(Cl)c(Cn2cccc(NC(=O)N[C@@H](CC(=O)O)c3ccc(C)cc3)c2=O)c1"
quantitymeasured = "IC50"
unitspec = "nM"
resultnumber = 90

[[record]]
compound = "Cc1ccc([C@H](CC(=O)O)NC(=O)Nc2cc(C(F)(F)F)cn(Cc3ccccc3)c2=O)cc1"
quantitymeasured = "IC50"
unitspec = "nM"
resultnumber = 1500

